target: recombinant human His6-GSK-3β (Homo sapiens, UniProt P49841); construct: His6; purchased EMD Biosciences; assay: GSK-3β kinase assay, [γ32P] transfer to primed glycogen synthase peptide; type: biochemical; conditions: 10 μM ATP; 10 μM pGSM peptide; 30 minutes at 30° C.; read-out: IC50 (nM), GSK-3β inhibition;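 note: phosphate incorporation quantified by liquid scintillation counting of the filters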
Sequence (P49841 whole entry): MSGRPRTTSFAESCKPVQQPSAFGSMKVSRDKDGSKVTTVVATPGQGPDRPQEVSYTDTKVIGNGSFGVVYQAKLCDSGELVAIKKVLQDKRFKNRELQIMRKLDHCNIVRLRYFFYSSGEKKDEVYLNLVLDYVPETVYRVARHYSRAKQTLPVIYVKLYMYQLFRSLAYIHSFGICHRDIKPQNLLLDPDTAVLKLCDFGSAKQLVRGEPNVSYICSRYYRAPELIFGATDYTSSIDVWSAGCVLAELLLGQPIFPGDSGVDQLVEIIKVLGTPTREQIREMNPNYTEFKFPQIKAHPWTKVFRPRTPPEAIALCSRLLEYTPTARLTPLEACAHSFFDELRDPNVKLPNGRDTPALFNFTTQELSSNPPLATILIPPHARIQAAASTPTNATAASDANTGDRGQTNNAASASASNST
Labelling field: enter criterion met if recorded IC50 is less than 200 nM. Enter criterion not met if it equals or exceeds that cut-off.

1) Cn1cc(C2=C(c3coc4ccc(F)cc34)C(=O)NC2=O)c2cc(I)ccc21 [Compound 29]; criterion met
2) Cn1cc(C2=C(c3coc4ccccc34)C(=O)NC2=O)c2cccc(CCC(=O)O)c21 [Compound 86]; criterion met
3) COc1cccc2c(C3=C(c4cn(C)c5cc(C(F)(F)F)ccc45)C(=O)NC3=O)coc12 [Compound 49]; criterion not met
4) Cn1cc(C2=C(c3coc4ccccc34)C(=O)NC2=O)c2cccc(OCc3ccccc3)c21 [Compound 54]; criterion not met
5) C#CCOc1ccc2c(C3=C(c4cn(C)c5ccc(Br)cc45)C(=O)NC3=O)coc2c1 [Compound 23]; criterion met
6) COCc1cccc2c(C3=C(c4coc5cc(CO)ccc45)C(=O)NC3=O)cn(C)c12 [Compound 92]; criterion met
